Test system: SK-MEL-5 melanoma
Assay: NCI tumour cell line growth inhibition, 48 h; in the data active = GI50 below about 0.43 µM; inactive = the rest
Labels: Yes (active), No (inactive)

1) N#Cc1cc2c(cc1Cl)SC(=Nc1ccccc1)N(S(=O)(=O)c1ccc(Cl)cc1)S2(=O)=O: No
2) N[C@@H]1CCCC[C@@H]1N.O=P([O-])([O-])CNCP(=O)([O-])[O-].[Pt+2]: No
3) COc1ccc2c3c([nH]c2c1)C(=O)c1nc(C)ccc1C3=O: No
4) Cc1ccc2c(c1)C(=O)C(c1c(-c3[nH]c(=O)c4ccc(C)cc4c3O)c(O)c3ccccc3c1O)=NC2=O: No
5) COc1ccccc1NC(=O)c1ccc(NC2=C(Cl)C(=O)N(Cc3ccccc3)C2=O)cc1: No
6) c1ccc(-c2n(Cc3ccc4ccccc4n3)cc[n+]2Cc2ccc3ccccc3n2)cc1: No
7) COc1cc(Cl)cc(-c2nn(-c3cccc(NC(=O)c4cccc(C(F)(F)F)c4)c3)cc2-c2ccncc2)c1: No
8) O=C(O)c1ccc2nc(-c3ccc(OCCCCCOc4ccc(-c5nc6ccc(C(=O)O)cc6[nH]5)cc4)cc3)[nH]c2c1: No
9) CC[C@H](C)[C@H](NC(=O)C12CC(NC)(C1)C2)C(=O)N(C)[C@H](C[C@@H](OC(C)=O)c1nc(C(=O)N[C@@H](Cc2ccccc2)C[C@H](C)C(=O)OC)cs1)C(C)C: Yes
10) COc1cc2c(c(OC)c1OC)-c1ccc(SC)c(=O)cc1C(CC(=O)Oc1ccc(F)cc1)C2 (configuration not stated): Yes
11) CC(C)c1ccc(COCc2cc(CN3CCCC3)c(O)c3ncccc23)cc1: Yes
12) COc1ccc2cnc(N)c(C#Cc3cc(C(=O)Nc4ccc(CN5CCN(C)CC5)c(C(F)(F)F)c4)cnc3C)c2c1: No

----------
System: MCF7 breast
Assay: NCI tumour cell line growth inhibition, 48 h
Documented TGI across a set of compounds
measure.name: TGI

1) CC(C)N(C(=O)C12C3(C(=O)OC(C)(C)C)C4C5(C#N)C3C1(C(=O)OC(C)(C)C)C5C42C(=O)OC(C)(C)C)C(C)C (stereo not drawn): 43.9 µM
2) c1ccc(-c2n(Cc3ccc4ccccc4n3)cc[n+]2Cc2ccc3ccccc3n2)cc1: 11.1 µM
3) COC(=O)c1oc2c(C(C)=O)c(OCCN3CCOCC3)c(OC)cc2c1C: > 100 µM
4) CC1OC(OC2C(O)COC(OC3C(C)OC(OC4C(OC(=O)[C@]56CCC(C)(C)C[C@@H]5C5=CCC7[C@@]8(C)C[C@H](O)[C@H](OC9OC(CO)C(O)C(O)C9O)[C@@](C)(CO)[C@@H]8CC[C@@]7(C)[C@]5(C)CC6)OCC(O)C4O)C(O)C3OC3OCC(O)C(O)C3O)C2O)C(O)C(O)C1O (stereo partly drawn): 43.8 µM
5) N#Cc1cc2c(cc1Cl)SC(=Nc1ccccc1)N(S(=O)(=O)c1ccc(Cl)cc1)S2(=O)=O: 37.6 µM
6) COc1cc(/C=N/NC(=O)c2c(Cl)c(Cl)c(Cl)c(Cl)c2-c2nc3ccccc3[nH]2)ccc1O: 44.7 µM
7) C[C@@H]1OC(=O)C[C@H]2CC(=O)N(CCC3CN(C(=O)c4ccccc4)c4ccccc43)C[C@@H]21 (stereo partly drawn): > 100 µM
8) COc1ccc(CN(Cc2ccc(OC)cc2)C(=O)CC2(O)CCc3ccccc3C2)cc1 (stereo not drawn): > 100 µM
9) O=C1/C(=C\c2cccc(Oc3ccccc3)c2)S(=O)(=O)C(c2ccccc2)N1c1cc(Cl)ccc1Cl (stereo not drawn): 45.1 µM
10) COc1ccc(-c2ncnc(-c3ccc(OC)c(OC)c3)n2)cc1OC: > 100 µM
11) CC1=C(C(=O)OCCc2ccc([N+](=O)[O-])cc2)C(c2cccc([N+](=O)[O-])c2)C(C(=O)OC(C)C)=C(C)N1 (stereo not drawn): > 100 µM
12) COc1ccc2nc3n[nH]c(N)c3nc2c1: > 26.7 µM
13) CCc1c(-c2ccccc2)[nH]c2ccccc2c1=O: > 100 µM
14) CCc1nc(N)c2nc(-c3ccc(C#N)cc3)oc2n1: > 100 µM
15) c1ccc2[nH]c(C3CCCCO3)nc2c1 (stereo not drawn): > 100 µM
16) CN1C(=O)C(O)CC1c1ccc(C(F)(F)F)cc1 (stereo not drawn): > 100 µM
17) CC(C)NC(=O)OCc1c(COC(=O)NC(C)C)n(C)c2c1ccc1ccsc12: > 53.1 µM
18) Cn1c(CCC2(C)Cc3ccccc3C(=O)O2)cc2ccccc2c1=O (stereo not drawn): 56.3 µM

These entries and their values trace back to PubChem BioAssay (NCI).
